test: Metabolic stability in Wistar rat brain assessed as remaining parent compound after 30 mins by HPLC analysis; assay type: ADME, tissue-based; conditions: read-out: Stability
parameter measured: remaining at 0.5 h (%)
Give your result in % as a bare value.

CCN(CC)C(=O)C1Sc2ccccc2-c2c1c1ccc(OC)cc1n2CCF (racemic) : 98
[3H]C([3H])([3H])N(C(=O)c1cc2ccccc2c(-c2ccccc2Cl)n1)C(C)CC (centres undefined) : 100
CCN(CC)C(=O)C1Sc2ccccc2-c2c1c1ccccc1n2CCF (racemic) : 95

We next turn to a different compound, shown below.
IN: Answer with the recorded remaining at 0.5 h of CCN(CC)C(=O)C1Sc2ccccc2-c2c1c1cc(OC)ccc1n2CCF (racemic) only.
OUT: 97
